- Tested on: HCT-116 colon
- ASSAY_OVERVIEW: NCI-60 one-dose screen, 48 h (100 = growth as untreated, 0 = no growth, -100 = all killed)
- EXPERIMENTAL_PARAMETERS: 10 µM unless noted
This is part of a sample that, as a whole, favours compounds with a hit. Of some 83,000 tested, about 20% had one in any assay. Calls of active or inactive are those of the source. The calls were made as follows: active = growth percent below 10; inactive = the rest.
ENDPOINT_NAME: growth

Working through the 4 compounds below one at a time, give growth for each.
1. C#CCOc1ccc(C(Nc2ccc(OC)cc2)c2nnnn2C2CCCCC2)cc1 (stereo not given)
2. CS(=O)(=O)c1ccc2c(c1)c1c(n2C(=O)c2ccc(Cl)cc2)CCCC1
3. CCOC(=O)c1c(NCC(=O)Nc2cccc([N+](=O)[O-])c2)sc2c1CCCC2
4. C=C1C(=O)O[C@@H]2C[C@@H](C)CCC(=O)[C@](C)(OC(C)=O)C[C@H](OC(=O)/C(C)=C\C)[C@@H]12

1: 88.7% (inactive); 2: 27.6% (inactive); 3: -21% (active); 4: 25.3% (inactive)

What does the record list as growth for `COc1ccc(-c2no[n+]([O-])c2Nc2ccccc2Br)cc1` ?
93.7% (inactive)

Entry source: PubChem BioAssay (NCI)
